B1: library; numbered along this chain (parent)
chain: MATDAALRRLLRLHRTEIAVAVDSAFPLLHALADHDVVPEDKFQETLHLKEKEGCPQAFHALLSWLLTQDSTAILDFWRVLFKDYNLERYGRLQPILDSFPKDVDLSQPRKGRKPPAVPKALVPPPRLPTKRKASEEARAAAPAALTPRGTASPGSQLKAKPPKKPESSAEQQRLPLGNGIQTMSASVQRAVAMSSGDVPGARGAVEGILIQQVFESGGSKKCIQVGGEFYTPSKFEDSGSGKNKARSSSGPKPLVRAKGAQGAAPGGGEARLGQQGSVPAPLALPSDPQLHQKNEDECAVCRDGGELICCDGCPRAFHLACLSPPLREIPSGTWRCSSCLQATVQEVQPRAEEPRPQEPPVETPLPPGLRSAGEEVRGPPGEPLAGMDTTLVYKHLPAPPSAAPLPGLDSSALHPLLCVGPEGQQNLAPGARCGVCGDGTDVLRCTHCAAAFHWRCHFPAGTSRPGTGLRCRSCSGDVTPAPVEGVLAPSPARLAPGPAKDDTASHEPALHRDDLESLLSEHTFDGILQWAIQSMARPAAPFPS

# Variants of: B1
# Test Method Notes: AIRE transcriptional activation functional score (insulin promoter-GFP; nonsense median 0, synonymous median 1) (normalised score); higher = higher AIRE activity (more reporter activation)
# Protocol Conditions: with insulin promoter-GFP reporter in HEK293
Observed Property: AIRE transcriptional activation functional score

## Task Note down AIRE transcriptional activation functional score recorded for `W78K`
## Result 0.0822

## Task Note down AIRE transcriptional activation functional score recorded for `R9T`
## Result 0.253

## Task Note down AIRE transcriptional activation functional score recorded for `T504E`
## Result 0.961

## Task Note down AIRE transcriptional activation functional score recorded for `A271C`
## Result 1

## Task Note down AIRE transcriptional activation functional score recorded for `G477M`
## Result 1.01

## Task Note down AIRE transcriptional activation functional score recorded for `K42R`
## Result -0.281

## Task Note down AIRE transcriptional activation functional score recorded for `L409R`
## Result 0.789

## Task Note down AIRE transcriptional activation functional score recorded for `G431R`
## Result 0.579

## Task Note down AIRE transcriptional activation functional score recorded for `L418A`
## Result 1.06

## Task Note down AIRE transcriptional activation functional score recorded for `C472R`
## Result 0.0742

## Task Note down AIRE transcriptional activation functional score recorded for `A21V`
## Result 0.278
